Parameter pIC50: see the listing below.
- tested-target: activated p38 (Homo sapiens, UniProt Q16539)
- Sequence (Q16539 whole entry): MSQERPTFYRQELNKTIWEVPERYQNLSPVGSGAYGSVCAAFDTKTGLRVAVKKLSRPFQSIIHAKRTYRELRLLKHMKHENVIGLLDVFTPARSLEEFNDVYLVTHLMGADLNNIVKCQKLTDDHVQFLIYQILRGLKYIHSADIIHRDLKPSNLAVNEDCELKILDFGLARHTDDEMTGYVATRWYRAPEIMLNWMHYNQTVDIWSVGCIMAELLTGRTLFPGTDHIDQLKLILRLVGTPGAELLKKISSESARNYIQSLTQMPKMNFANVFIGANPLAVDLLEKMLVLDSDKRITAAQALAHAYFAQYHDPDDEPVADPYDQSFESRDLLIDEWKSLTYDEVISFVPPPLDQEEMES
- method-notes: Inhibition of phosphorylation of EGF receptor peptide ("kinase")
- condition-description: inhibition of phosphorylation of EGF receptor peptide by activated p38
pIC50: −log10 of the molar value.

- molecule: "Nc1ccc(Cl)c(-c2c(=O)ncn3nc(Sc4ccc(Br)cc4)ccc23)c1Cl [Compound 37]"
  observation-type: "pIC50"
  val: "6.00 to 7.00"
- molecule: "NC(=O)C(c1cccc(-c2cccc(C=O)c2)n1)c1c(Cl)cccc1Cl (stereo not drawn) [Compound 321]"
  observation-type: "pIC50"
  val: "≤ 6.00"
- molecule: "NC(=O)C(c1cccc(-c2cc(C(F)(F)F)cc(C(F)(F)F)c2)n1)c1c(Cl)cccc1Cl (stereo not drawn) [Compound 387]"
  observation-type: "pIC50"
  val: "≤ 6.00"
- molecule: "O=C(CCl)Nc1ccc(C2=C3C=CC(Sc4ccc(F)cc4)=NN3CNC2=O)c(Cl)c1 [Compound 141]"
  observation-type: "pIC50"
  val: "≥ 7.00"
- molecule: "Nc1ccc(-c2c(=O)ncn3nc(Sc4ccc(F)cc4)ccc23)c(Cl)c1 [Compound 46]"
  observation-type: "pIC50"
  val: "6.00 to 7.00"

Notebook entry, activated p38 (Homo sapiens, UniProt Q16539) assay: pIC50 of O=C(CN1CCOCC1)Nc1ccc(C2=C3C=CC(Sc4ccc(F)cc4)=NN3CNC2=O)c(Cl)c1 [Compound 144] = ?
≥ 7.00

The origin of these recorded values is patent US7205305B2.
